This collection of values is drawn from patent US8383622B2.

assay: log k′ (degree of lipophilic character) by gradient HPLC; assay type: physicochemical; details: XTerra MS C18 column; acetonitrile/pH6.8 buffer gradient 5:95-95:5/20 min
Listing: log k′ of selected compounds
Respond using a number only.

I would be grateful if you could share the reported log k′ for COC(=O)NC(C)(C)/C=C/n1ncc(C(=O)N[C@H]2C3CC4CC2C[C@](CO)(C4)C3)c1OCC(C)C [Compound I-19] .
0.907

New cases:
Item CC(C)COc1c(C(=O)NC2C3CC4CC2CC(OC(N)=O)(C4)C3)cnn1/C=C/C(C)(C)CO (centres unmarked) [Compound I-73] has what recorded log k′?
0.876

Recorded log k′ for CNC(=O)OC[C@]12CC3CC(C1)[C@@H](NC(=O)c1cnn(/C=C/C(C)(C)NC(C)=O)c1OCC(C)C)C(C3)C2 [Compound I-66] , please?
0.886

Can you look up the measured log k′ of COC(=O)NC(C)(C)/C=C/n1ncc(C(=O)N[C@H]2C3CC4CC2C[C@](COC(N)=O)(C4)C3)c1OCC(C)C [Compound I-17] for me?
0.916

What measured log k′ goes with CC(C)COc1c(C(=O)N[C@H]2C3CC4CC2C[C@](OC(N)=O)(C4)C3)cnn1/C=C/C(C)(C)NC(=O)C(C)C [Compound I-27] ?
0.903
